The entries below are paired with their reported Receptor Binding % WT.
Biological target: LD78 receptor on the murine stem cell line FDCP cell mix (A4 cells) (murine)
Test: displacement of 125I-LD78 from FDCP-mix A4 cells; % of wild-type activity based on IC50
Use % WT as the unit, but write only the number.

Take a look at these entries with their results.
LD78 Tyr27>Ala (Mutant 66) (ligand) SLAADTPTACCFSYTSRQIPQNFIADAFETSSQCSKPGVIFLTKRSRQVCADPSEEWVQKYVSDLELSA | 47
LD78 Phe28>Glu Arg47>Glu (Mutant 26) (ligand) SLAADTPTACCFSYTSRQIPQNFIADYEETSSQCSKPGVIFLTKRSEQVCADPSEEWVQKYVSDLELSA | 1
LD78 Ile24>Ala (Mutant 38) (ligand) SLAADTPTACCFSYTSRQIPQNFAADYFETSSQCSKPGVIFLTKRSRQVCADPSEEWVQKYVSDLELSA | 50
LD78 Ser13>Ala (Mutant 62) (ligand) SLAADTPTACCFAYTSRQIPQNFIADYFETSSQCSKPGVIFLTKRSRQVCADPSEEWVQKYVSDLELSA | 66
LD78 Glu29>Arg (Mutant 28) (ligand) SLAADTPTACCFSYTSRQIPQNFIADYFRTSSQCSKPGVIFLTKRSRQVCADPSEEWVQKYVSDLELSA | 7.7

(Q) Note down Receptor Binding % WT recorded for LD78 Asp26>Ala (Mutant 10) (ligand) SLAADTPTACCFSYTSRQIPQNFIAAYFETSSQCSKPGVIFLTKRSRQVCADPSEEWVQKYVSDLELSA
(A) 77.4

(Q) Note down Receptor Binding % WT recorded for LD78 Phe12>Gln (Mutant 11) (ligand) SLAADTPTACCQSYTSRQIPQNFIADYFETSSQCSKPGVIFLTKRSRQVCADPSEEWVQKYVSDLELSA
(A) 34

(Q) Note down Receptor Binding % WT recorded for LD78 Ser35>Ala (Mutant 68) (ligand) SLAADTPTACCFSYTSRQIPQNFIADYFETSSQCAKPGVIFLTKRSRQVCADPSEEWVQKYVSDLELSA
(A) 125

(Q) Note down Receptor Binding % WT recorded for LD78 Lys44>Glu Arg45>Gln (Mutant 2) (ligand) SLAADTPTACCFSYTSRQIPQNFIADYFETSSQCSKPGVIFLTEQSRQVCADPSEEWVQKYVSDLELSA
(A) 5
